In this section we review reported EC50 values for a set of compounds.
system: Mammalian orthoreovirus 1; assay: Antiviral activity against Reovirus 1 infected in golden hamster BHK21 cells assessed as protection against virus-induced cytopathic effect after 3 to 4 days by MTT assay; type: functional, organism-based; settings: Mammalian orthoreovirus 1, BHK-21
readout name: EC50

[[record]]
compound = "NS(=O)(=O)c1ccc(N2N=C(c3ccc(OCc4ccccc4)cc3)CC2c2ccc(Cl)cc2)cc1 (stereo unspecified)"
result = "> 16 µM"

[[record]]
compound = "NS(=O)(=O)c1ccc(N2N=C(c3ccc(Oc4ccccc4)cc3)CC2c2ccc(F)cc2)cc1 (stereo unspecified)"
result = "> 8 µM"

[[record]]
compound = "NS(=O)(=O)c1ccc(N2N=C(c3ccc(Oc4ccccc4)cc3)CC2c2ccccc2)cc1 (stereo unspecified)"
result = "> 11 µM"

[[record]]
compound = "Cc1cccc(C2CC(c3ccc(OCc4ccccc4)cc3)=NN2c2ccc(S(N)(=O)=O)cc2)c1 (stereo unspecified)"
result = "> 8 µM"

[[record]]
compound = "NS(=O)(=O)c1ccc(N2N=C(c3ccccc3)CC2c2ccccc2F)cc1 (stereo unspecified)"
result = "> 21 µM"

[[record]]
compound = "NS(=O)(=O)c1ccc(N2N=C(c3ccc(OCc4ccccc4)cc3)CC2c2ccccc2)cc1 (stereo unspecified)"
result = "> 84 µM"

[[record]]
compound = "NS(=O)(=O)c1ccc(N2N=C(c3ccccc3)CC2c2ccc(Cl)cc2)cc1 (stereo unspecified)"
result = "> 32 µM"

[[record]]
compound = "NS(=O)(=O)c1ccc(N2N=C(c3ccccc3)CC2c2cccc(F)c2)cc1 (stereo unspecified)"
result = "> 15 µM"

[[record]]
compound = "NS(=O)(=O)c1ccc(N2N=C(c3ccccc3)CC2c2ccccc2Cl)cc1 (stereo unspecified)"
result = "> 13 µM"

[[record]]
compound = "NS(=O)(=O)c1ccc(N2N=C(c3ccc(OCc4ccccc4)cc3)CC2c2cccc(F)c2)cc1 (stereo unspecified)"
result = "> 9 µM"

[[record]]
compound = "Cc1ccccc1C1CC(c2ccc(Oc3ccccc3)cc2)=NN1c1ccc(S(N)(=O)=O)cc1 (stereo unspecified)"
result = "> 7 µM"

[[record]]
compound = "NS(=O)(=O)c1ccc(N2N=C(c3ccc(OCc4ccccc4)cc3)CC2c2ccc(F)cc2)cc1 (stereo unspecified)"
result = "> 69 µM"

[[record]]
compound = "Cc1cccc(C2CC(c3ccccc3)=NN2c2ccc(S(N)(=O)=O)cc2)c1 (stereo unspecified)"
result = "> 25 µM"

[[record]]
compound = "NS(=O)(=O)c1ccc(N2N=C(c3ccc(OCc4ccccc4)cc3)CC2c2cccc(Cl)c2)cc1 (stereo unspecified)"
result = "> 47 µM"

[[record]]
compound = "NS(=O)(=O)c1ccc(N2N=C(c3ccc(OCc4ccccc4)cc3)CC2c2ccccc2F)cc1 (stereo unspecified)"
result = "> 92 µM"

[[record]]
compound = "O=c1cnn([C@@H]2O[C@H](CO)[C@@H](O)[C@H]2O)c(=O)[nH]1 [6-AZAURIDINE]"
result = "18 µM"

[[record]]
compound = "NS(=O)(=O)c1ccc(N2N=C(c3ccc(OCc4ccccc4)cc3)CC2c2ccccc2Cl)cc1 (stereo unspecified)"
result = "> 12 µM"

[[record]]
compound = "NS(=O)(=O)c1ccc(N2N=C(c3ccc(Oc4ccccc4)cc3)CC2c2cccc(F)c2)cc1 (stereo unspecified)"
result = "> 11 µM"

[[record]]
compound = "Cc1ccccc1C1CC(c2ccccc2)=NN1c1ccc(S(N)(=O)=O)cc1 (stereo unspecified)"
result = "> 14 µM"

[[record]]
compound = "Cc1ccc(C2CC(c3ccccc3)=NN2c2ccc(S(N)(=O)=O)cc2)cc1 (stereo unspecified)"
result = "> 7 µM"

[[record]]
compound = "NS(=O)(=O)c1ccc(N2N=C(c3ccccc3)CC2c2ccccc2)cc1 (stereo unspecified)"
result = "> 15 µM"

[[record]]
compound = "NS(=O)(=O)c1ccc(N2N=C(c3ccc(Oc4ccccc4)cc3)CC2c2ccccc2Cl)cc1 (stereo unspecified)"
result = "> 8 µM"

[[record]]
compound = "Cc1cccc(C2CC(c3ccc(Oc4ccccc4)cc3)=NN2c2ccc(S(N)(=O)=O)cc2)c1 (stereo unspecified)"
result = "> 8 µM"

[[record]]
compound = "NS(=O)(=O)c1ccc(N2N=C(c3ccccc3)CC2c2cccc(Cl)c2)cc1 (stereo unspecified)"
result = "> 8 µM"

[[record]]
compound = "NS(=O)(=O)c1ccc(N2N=C(c3ccc(Oc4ccccc4)cc3)CC2c2ccccc2F)cc1 (stereo unspecified)"
result = "> 32 µM"

[[record]]
compound = "NS(=O)(=O)c1ccc(N2N=C(c3ccc(Oc4ccccc4)cc3)CC2c2ccc(Cl)cc2)cc1 (stereo unspecified)"
result = "> 7 µM"

[[record]]
compound = "Cc1ccc(C2CC(c3ccc(Oc4ccccc4)cc3)=NN2c2ccc(S(N)(=O)=O)cc2)cc1 (stereo unspecified)"
result = "> 8 µM"

[[record]]
compound = "Cc1ccc(C2CC(c3ccc(OCc4ccccc4)cc3)=NN2c2ccc(S(N)(=O)=O)cc2)cc1 (stereo unspecified)"
result = "> 32 µM"

[[record]]
compound = "NS(=O)(=O)c1ccc(N2N=C(c3ccccc3)CC2c2ccc(F)cc2)cc1 (stereo unspecified)"
result = "> 12 µM"

[[record]]
compound = "Cc1ccccc1C1CC(c2ccc(OCc3ccccc3)cc2)=NN1c1ccc(S(N)(=O)=O)cc1 (stereo unspecified)"
result = "> 20 µM"

[[record]]
compound = "NS(=O)(=O)c1ccc(N2N=C(c3ccc(Oc4ccccc4)cc3)CC2c2cccc(Cl)c2)cc1 (stereo unspecified)"
result = "> 9 µM"

